Values compiled from ChEMBL document CHEMBL3856233.

test: Cmax in cynomolgus monkey at 5 mg/kg, po after 0.033 to 24 hrs by LC/MS/MS analysis
Format: ADME, organism-based, Macaca fascicularis
Design: dose 5 mg/kg, route oral
assayContext: in vivo
measuredMetric: Cmax (ng/mL)
Write the number in ng/mL without appending the unit.

Look up and report measured Cmax for this entry: C[C@@H]1c2ncn(-c3ccc(F)cn3)c2CCN1C(=O)c1cccc(C(F)(F)F)c1Cl
389

----------
targetDesc: P2X purinoceptor 7 (Homo sapiens, UniProt Q99572)
Sequence (Q99572 whole entry): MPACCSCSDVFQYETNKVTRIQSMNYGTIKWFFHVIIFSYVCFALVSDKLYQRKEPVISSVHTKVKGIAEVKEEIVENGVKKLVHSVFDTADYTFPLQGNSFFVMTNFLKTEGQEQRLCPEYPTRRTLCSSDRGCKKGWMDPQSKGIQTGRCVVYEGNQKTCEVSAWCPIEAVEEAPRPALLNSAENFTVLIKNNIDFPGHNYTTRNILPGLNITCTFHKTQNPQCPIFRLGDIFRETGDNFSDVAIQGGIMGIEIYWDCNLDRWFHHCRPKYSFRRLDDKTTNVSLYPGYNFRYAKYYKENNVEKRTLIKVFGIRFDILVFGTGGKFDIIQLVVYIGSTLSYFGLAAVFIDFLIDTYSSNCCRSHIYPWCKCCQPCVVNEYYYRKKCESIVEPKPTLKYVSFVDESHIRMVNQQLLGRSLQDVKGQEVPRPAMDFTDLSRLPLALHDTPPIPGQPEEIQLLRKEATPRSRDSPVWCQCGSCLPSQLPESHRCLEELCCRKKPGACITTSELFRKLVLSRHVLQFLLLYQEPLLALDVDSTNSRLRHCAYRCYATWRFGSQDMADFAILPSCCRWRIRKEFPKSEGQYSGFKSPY
test: Antagonist activity at recombinant human P2X7 receptor expressed in human 1321N1 cells assessed as inhibition of Bz-ATP-induced Ca2+ flux preincubated for 30 mins followed by agonist addition measured after 180 sec by calcium-4 dye based FLIPR assay
measuredMetric: pIC50
Please express pIC50 as -log10 of the molar concentration.

Look up and report measured pIC50 for this entry: CC1c2ncn(-c3cnccn3)c2CCN1C(=O)c1cccc(C(F)(F)F)c1Cl (centres undefined)
7.11

Look up and report measured pIC50 for this entry: CC1c2ncn(-c3ncccc3F)c2CCN1C(=O)c1cccc(C(F)(F)F)c1Cl (centres undefined)
8.05

Look up and report measured pIC50 for this entry: O=C(c1cccc(C(F)(F)F)c1Cl)N1CCc2c(ncn2-c2ccccn2)C1
8.40

Look up and report measured pIC50 for this entry: O=C(c1cccc(C(F)(F)F)c1Cl)N1CCc2c(ncn2-c2cnccn2)C1
8.05
